- testMethodNotes: Metabolic stability in human liver assessed as intrinsic clearance
- Assay type: ADME, tissue-based
- assayConditions: read-out: CLH
resultType: CLint scaled

Challenge: // returns reported CLint scaled for input COc1cc(Nc2nc(N3C[C@@H](C)N[C@@H](C)C3)ncc2F)ccc1NC(=O)c1ccc(C2=CCCC2)s1
Response given: < 38 mL/min/kg

====

- testMethodNotes: Metabolic stability in human liver microsomes assessed as compound remaining measured after 60 mins
- Format: ADME, Microsome
- assayConditions: read-out: Stability
resultType: remaining at 1 h (%)
Express the result in % but write the number alone.

Challenge: Tell me the measured remaining at 1 h of COc1cc(Nc2nc(N3C[C@@H](C)N[C@@H](C)C3)ncc2F)ccc1NC(=O)c1ccc(C2=CCCC2)s1 , please.
Response given: 102

====

- testMethodNotes: Protein binding in human plasma
- Assay type: ADME, cell-free
- assayConditions: read-out: PPB (converted)
resultType: fraction unbound
Give the value as a plain number.

Challenge: Give its fraction unbound value. Item: COc1cc(Nc2nc(N3C[C@@H](C)N[C@@H](C)C3)ncc2F)ccc1NC(=O)c1ccc(C2=CCCC2)s1
Response given: 0.076

====

- testMethodNotes: Protein binding in human plasma assessed as unbound fraction
- Type: ADME, cell-free
resultType: fraction unbound
No unit in the answer, only the number.

Challenge: Return reported fraction unbound; argument: COc1cc(Nc2nc(N3C[C@@H](C)N[C@@H](C)C3)ncc2F)ccc1NC(=O)c1ccc(C2=CCCC2)s1
Response given: 0.076

====

- testMethodNotes: Metabolic stability in human liver microsomes assessed as half life
- Type: ADME, Microsome
resultType: half-life

Challenge: Reported half-life, molecule COc1cc(Nc2nc(N3C[C@@H](C)N[C@@H](C)C3)ncc2F)ccc1NC(=O)c1ccc(C2=CCCC2)s1 : ____
Response given: > 1 h

====

- testMethodNotes: Cytotoxicity against HAF cells assessed as reduction in cell viability incubated for 72 hrs by CCK8 assay
- assayConditions: Homo sapiens
resultType: IC50

{"columns": ["querySmiles", "resultType", "recordedResult"],
 "data": [
  ["COc1cc(Nc2nc(N3C[C@@H](C)N[C@@H](C)C3)ncc2F)ccc1NC(=O)c1ccc(C2=CCCC2)s1", "IC50", "26.4 µM"]
]}

Challenge: Which measured IC50 value corresponds to O=C(O)CCN1C(=O)/C(=C2/C(=O)Nc3ccc(Cl)cc32)SC1=S ?
Response given: > 100 µM

Challenge: Look up IC50 for this compound: O=C1Cc2cc(Nc3nc(NCc4cccnc4)ncc3Cl)ccc2N1
Response given: > 100 µM

====

- targetOrSystem: B-cell lymphoma 6 protein (Homo sapiens, UniProt P41182, C67R/C84N/C8Q)
- testMethodNotes: Inhibition of recombinant human C-terminal GST-tagged BCL6 BTB domain C8Q/C67R/C84N triple mutant expressed in Escherichia coli BL21 (DE3) cells assessed as reduction in SMRT/BTB domain interaction incubated for 1 hr by HTRF assay
resultType: IC50

Reference set, count: 6
{"columns": ["querySmiles", "IC50"],
 "data": [
  ["COc1cc(Nc2nc(N3C[C@@H](C)N[C@@H](C)C3)ncc2F)ccc1NC(=O)c1ccc(Br)s1", "> 10 µM"],
  ["COc1ccc(Nc2nc(N3C[C@@H](C)N[C@@H](C)C3)ncc2F)cc1NC(=O)c1ccc(Br)o1", "> 20 µM"],
  ["COc1ccc(Nc2nc(N3C[C@@H](C)N[C@@H](C)C3)ncc2F)cc1NC(=O)c1ccc(Br)s1", "> 20 µM"],
  ["CCCCNc1ncc(F)c(Nc2ccc(OC)c(Cl)c2)n1", "> 10 µM"],
  ["COc1ccc(Nc2nc(N3C[C@H](C)C[C@H](C)C3)ncc2F)cc1Cl", "> 10 µM"],
  ["COc1ccc(Nc2nc(N(CC(C)C)CC(C)C)ncc2F)cc1Cl", "> 10 µM"]
]}

Challenge: Record request: IC50 value, item COc1cc(Nc2nc(N3C[C@@H](C)N[C@@H](C)C3)ncc2F)ccc1NC(=O)c1ccc(Br)o1
Response given: > 10 µM

Data provenance is ChEMBL document CHEMBL4376875.
